- System: Bacillus subtilis ATCC 6051
- testDescription: microbe, parasite or virus in culture
- Assay type: cell-based
- assaySetup: ATCC 6051, 16 h
Positions of bridges follow the written chain, without caps; N, C: chain ends. Non-standard residues stand in square brackets, D forms with d. Residues, ends and D or L forms follow the SMILES beside them. Chains are numbered I, II in the order given. d(aIle) = CC[C@H](C)[C@@H](N)C(=O)O; dNMeF = CN[C@H](Cc1ccccc1)C(=O)O
observationType: MIC B. subtilis

Example results:
compound | assayValue
CC[C@H](C)[C@H](NC(=O)[C@@H](Cc1ccccc1)NC)C(=O)N[C@@H](CO)C(=O)N[C@H](CCC(N)=O)C(=O)N[C@@H](C(=O)N[C@H](C(=O)OC[C@H](N)C(=O)N[C@H]1C(=O)N[C@@H](C)C(=O)N[C@@H](CCCNC(=N)N)C(=O)N[C@@H]([C@@H](C)CC)C(=O)O[C@H]1C)[C@@H](C)CC)[C@@H](C)CC [compound 7, [Ile6-O-Ser7],Arg10-teixobactin] (I: H-[dNMeF]IS[dQ][d(aIle)]I / II: H-S[dT]ARI; ester I:C-II:1, II:2-II:C) | ≤ 0.0625 µg/mL
CC[C@H](C)[C@H](NC(=O)[C@@H](Cc1ccccc1)NC)C(=O)N[C@@H](CO)C(=O)N[C@H](CCC(N)=O)C(=O)N[C@@H](C(=O)N[C@H](C(=O)N[C@@H](CO)C(=O)N[C@H]1C(=O)N[C@@H](C)C(=O)N[C@@H](CCCNC(=N)N)C(=O)N[C@@H]([C@@H](C)CC)C(=O)O[C@H]1C)[C@@H](C)CC)[C@@H](C)CC | ≤ 0.0625 µg/mL

Lab entry: Bacillus subtilis ATCC 6051 assay, compound CC[C@H](C)[C@H](NC(=O)[C@@H](Cc1ccccc1)NC)C(=O)N[C@@H](CO)C(=O)N[C@H](CCC(N)=O)C(=O)N[C@@H](C(=O)N[C@H](C(=O)N[C@@H](CO)C(=O)N[C@H]1C(=O)N[C@@H](C)C(=O)N[C@@H](CCCCN)C(=O)N[C@@H]([C@@H](C)CC)C(=O)O[C@H]1C)[C@@H](C)CC)[C@@H](C)CC [compound 1, Lys10-teixobactin] (H-[dNMeF]IS[dQ][d(aIle)]IS[dT]AKI; ester 8-C) , MIC B. subtilis = ≤ 0.0625 µg/mL

FYI, the data here is from paper PMC11494653.
